src = patent US20080318905A1

biological target: human mu receptor (Homo sapiens)
Sequence (P35372 whole entry): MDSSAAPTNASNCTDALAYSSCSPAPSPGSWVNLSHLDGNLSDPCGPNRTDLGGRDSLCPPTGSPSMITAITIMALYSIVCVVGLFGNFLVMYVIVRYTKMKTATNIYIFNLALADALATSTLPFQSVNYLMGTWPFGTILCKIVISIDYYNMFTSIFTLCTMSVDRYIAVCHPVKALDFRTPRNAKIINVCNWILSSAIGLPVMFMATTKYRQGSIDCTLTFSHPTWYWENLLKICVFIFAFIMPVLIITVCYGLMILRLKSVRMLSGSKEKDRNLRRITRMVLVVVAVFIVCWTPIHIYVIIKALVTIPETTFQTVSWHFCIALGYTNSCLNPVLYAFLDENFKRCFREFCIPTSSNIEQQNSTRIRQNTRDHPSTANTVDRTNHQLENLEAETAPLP
pIC50: −log10 of the molar value.

[
  {
    "Compound": "C[N+]1(COP(=O)(O)O)CCC23CCCCC2C1Cc1ccc(O)cc13 (stereo not shown)",
    "pIC50": 7.85
  }
]

---

biological target: human mu receptor (Homo sapiens)
pKi: −log10 of the molar value.

[
  {
    "Compound": "C[N+]1(COP(=O)(O)O)CCC23CCCCC2C1Cc1ccc(O)cc13 (stereo not shown)",
    "pKi": 8.24
  }
]
